tested.target: Enterobacter cloacae lectin A (EclA) (Enterobacter cloacae, UniProt A0A0H3CQ33)
Sequence (A0A0H3CQ33 entry or part of it): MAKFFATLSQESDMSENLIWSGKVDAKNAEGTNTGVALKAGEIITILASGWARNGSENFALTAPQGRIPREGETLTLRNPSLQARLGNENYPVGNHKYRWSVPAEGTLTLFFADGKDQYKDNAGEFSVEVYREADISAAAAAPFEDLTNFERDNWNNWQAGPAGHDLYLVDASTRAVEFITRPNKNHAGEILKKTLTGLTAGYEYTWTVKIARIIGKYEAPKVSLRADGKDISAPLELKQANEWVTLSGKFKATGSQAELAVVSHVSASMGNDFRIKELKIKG
method.description: competitive fluorescence polarization displacement of […]
Assay type: binding
Parameters: gene ECL_04191; full-length EclA and EclA-C (amino acids 140–283)
assay.metric: IC50

compound: CO[C@H]1O[C@@H](C)[C@@H](O)[C@@H](O)[C@@H]1O [compound 13, methyl β-L-fucoside]
result: 1500 to 1800 µM
--
compound: CO[C@@H]1O[C@@H](C)[C@@H](O)[C@@H](O)[C@@H]1O [compound 12, methyl α-L-fucoside]
result: 1300 to 1400 µM
